- System: Hs 746T (human gastric carcinoma cell line)
- ASSAY_COMMENT: 48 hr CTG viability assay, Hs 746T
- Assay type: cell-based
- EXPERIMENTAL_CONDITIONS: Hs746T, 48 hr CTG, read-out: Hs 746T IC50
pIC50: −log10 of the molar value.
Measured pIC50 by item

Cc1ccc2cc1CNC(=O)[C@H](CCc1ccccc1)NC(=O)[C@@H](NC(=O)CCN1CC3(CCC3)C1)CC(=O)N1CCCC(CCO2)C1 (stereo partly drawn) | > 7.00
Cc1ccc2cc1CNC(=O)[C@H](CCC(C)C)NC(=O)[C@@H](NC(=O)Cc1cn3ccsc3n1)CC(=O)N1CCCC(CCO2)C1 (stereo partly drawn) | > 7.00
Cc1ccc2cc1CNC(=O)[C@H](CCc1ccccc1)NC(=O)[C@@H](NC(=O)C1(C)CNC1)CC(=O)N1CCCC(CCO2)C1 (stereo partly drawn) | 6.30 to 7.00
Cc1ccc2cc1CNC(=O)[C@H](CCc1ccccc1)NC(=O)[C@@H](NC(=O)N1CCNCC1)CC(=O)N1CCCC(CCO2)C1 (stereo partly drawn) | 6.30 to 7.00
Cc1ccc2cc1CNC(=O)[C@H](CCc1ccncc1)NC(=O)[C@@H](NC(=O)Cc1ccccc1F)CC(=O)N1CCCC(CCO2)C1 (stereo partly drawn) | > 7.00

// moving on: another record for pIC50
For the compound Cc1ccc2cc1CNC(=O)[C@H](CCc1ccccc1)NC(=O)[C@@H](NC(=O)CCOCCCC1CCCC1)CC(=O)N1CCCC(CCO2)C1 (stereo partly drawn) , what pIC50 is on record?
> 7.00

* * *

- Test system: hPMBC
- ASSAY_COMMENT: Chymotrypsin-like ProteasomeGlo assay in hPBMC
- Assay type: cell-based
- EXPERIMENTAL_CONDITIONS: Homo sapiens; read-out: Pglo hPBMC
pIC50: −log10 of the molar value.
PROPERTY: pIC50

Example entries begin here.
Cc1ccc2cc1CNC(=O)[C@H](CCc1ccccc1)NC(=O)[C@@H](NC(=O)c1ccc3cc(N)ccc3c1)CC(=O)N1CCCC(CCO2)C1 (some centres unmarked) | 6.30 to 7.00
CO[C@@H](C(=O)N[C@H]1CC(=O)N2CCCC(CCOc3ccc(C)c(c3)CNC(=O)[C@H](CCc3ccccc3)NC1=O)C2)c1ccccc1 (some centres unmarked) | > 7.00
Cc1ccc2cc1CNC(=O)[C@H](CCc1ccccc1)NC(=O)[C@@H](NC(=O)OCc1ccccc1)CCCC(=O)N1CCCC(CCO2)C1 (some centres unmarked) | > 7.00
C=CS(=O)(=O)N[C@H]1CC(=O)N2CCCC(CCOc3ccc(C)c(c3)CNC(=O)[C@H](CCc3ccccc3)NC1=O)C2 (some centres unmarked) | > 7.00
CC(=O)N[C@H]1CC(=O)N2CCCC(CCOc3ccc(C)c(c3)CNC(=O)C(c3cnn(C)c3)NC1=O)C2 (some centres unmarked) | > 7.00

For the compound `CC(=O)N[C@H]1CC(=O)NCCCCOc2ccc(C)c(c2)CNC(=O)[C@H](CCc2ccccc2)NC1=O` , what pIC50 is on record?
5.30 to 6.00

For the compound `Cc1ccc2cc1CNC(=O)[C@@H](CCc1ccccc1)NC(=O)[C@H](NC(=O)OCc1ccccc1)CC(=O)N1CCC[C@H](CCO2)C1` , what pIC50 is on record?
< 5.30

For the compound CC(=O)N[C@H]1CC(=O)N2CCCC(CCOc3ccc(C)c(c3)CNC(=O)C(CCc3nccs3)NC1=O)C2 (some centres unmarked) , what pIC50 is on record?
> 7.00

For the compound Cc1n[nH]c(CC(=O)N[C@H]2CC(=O)N3CCCC(CCOc4ccc(C)c(c4)CNC(=O)[C@H](CCc4ccccc4)NC2=O)C3)n1 (some centres unmarked) , what pIC50 is on record?
> 7.00

For the compound Cc1ccc2cc1CNC(=O)[C@H](CCc1ccccc1)NC(=O)[C@@H](NC(=O)OCC1(C)COC1)CC(=O)N1CCCC(CCO2)C1 (some centres unmarked) , what pIC50 is on record?
> 7.00

For the compound Cc1ccc2cc1CNC(=O)[C@H](CCc1ccccc1)NC(=O)[C@@H](NC(=O)Cc1ccc(N)cc1)CC(=O)N1CCCC(CCO2)C1 (some centres unmarked) , what pIC50 is on record?
> 7.00
